# pIC50 listing for each entry below
Target: rat MCH 1 receptor (rMCH1R) (Rattus norvegicus)
Construct: expressed in transfected cells; host or cells: HEK 293 (membrane preparation)
Experiment: Ligand binding assay (125I native-MCH), rMCH
Settings: rMCH1R expressed in HEK 293, membranes, 0.2 nM 125I native-MCH; threshold 100 μM or less
pIC50: −log10 of the molar value.
READOUT NAME: pIC50

                            molecule_smiles  experimental_value
0  CCNC(=O)Nc1cc(C(=O)NCCN2CCCC2)ccc1Oc1ccc(C)c(C)c1              ≥ 4.00
1  Cc1ccc(Oc2ccc(C(=O)NCCN3CCCC3)cc2NC(=O)Nc2cccc3ccccc23)cc1C              ≥ 4.00
2  Cc1ccc(Oc2ccc(C(=O)NCCN3CCCC3)cc2NC(=O)Nc2ccc(Oc3ccccc3)cc2)cc1C              ≥ 4.00

---

Molecular target: rat MCH1 receptor (Rattus norvegicus)
Construct: expressed in transfected cells
Assay: rMCH FLIPR calcium mobilization functional assay
Type: cell-based
Details: CHOK1-Gqi cells, threshold 100 μM or less
pKi: −log10 of the molar value.
This listing pairs compounds with measured pKi.
READOUT NAME: pKi

>>> df
                                    compound  experimental_value
 0  Cc1ccc(Oc2ccc(C(=O)NCCN3CCCC3)cc2NC(=O)CCc2ccccc2)cc1C [Compound 5]              ≥ 4.00
 1  Cc1ccc(Oc2ccc(C(=O)NCCN3CCCC3)cc2NC(=O)Nc2cc(F)cc(F)c2)cc1C [Compound 58]              ≥ 4.00
 2  Cc1ccc(Oc2ccc(C(=O)NCCN3CCCC3)cc2NC(=O)Nc2cccc(F)c2)cc1 [Compound 56]              ≥ 4.00
 3  Cc1ccc(Oc2ccc(C(=O)NCCN3CCCC3)cc2NC(=O)NCc2ccccc2)cc1C [Compound 6]              ≥ 4.00
 4  Cc1ccc(Oc2ccc(C(=O)NCCN3CCCC3)cc2NC(=O)/C=C/c2ccccc2)cc1C [Compound 15]              ≥ 4.00
 5  Cc1ccc(Oc2ccc(C(=O)NCCN3CCCC3)cc2NC(=O)Nc2ccc(C(C)C)cc2)cc1C [Compound 34]              ≥ 4.00
 6  Cc1ccc(Oc2ccc(C(=O)NCCN3CCCC3)cc2NC(=O)Nc2ccc(Oc3ccccc3)cc2)cc1C [Compound 32]              ≥ 4.00
 7  Cc1ccc(Oc2ccc(C(=O)NCCN3CCCC3)cc2NC(=O)Nc2ccccc2)cc1C [Compound 1]              ≥ 4.00
 8  COc1cccc(NC(=O)Nc2cc(C(=O)NCCN3CCCC3)ccc2Oc2ccc(C)c(C)c2)c1 [Compound 40]              ≥ 4.00
 9  Cc1ccc(Oc2ccc(C(=O)NCCN3CCCC3)cc2NC(=O)Nc2ccc(Cl)cc2Cl)cc1C [Compound 31]              ≥ 4.00
10  O=C(Nc1cccc(F)c1)Nc1cc(C(=O)NCCN2CCCC2)ccc1Oc1ccc(F)c(F)c1 [Compound 53]              ≥ 4.00
11  O=C(Nc1cccc(F)c1)Nc1cc(C(=O)NCCN2CCCC2)ccc1Oc1cccc(F)c1 [Compound 55]              ≥ 4.00
12  Cc1cc(Oc2ccc(C(=O)NCCN3CCCC3)cc2NC(=O)Nc2cccc(F)c2)ccc1F [Compound 51]              ≥ 4.00
13  Cc1cccc(Oc2ccc(C(=O)NCCN3CCCC3)cc2NC(=O)Nc2cccc(F)c2)c1 [Compound 57]              ≥ 4.00
14  Cc1ccc(Oc2ccc(C(=O)NCCN3CCCC3)cc2NC(=O)Nc2cccc(F)c2)cc1C [Compound 39]              ≥ 4.00
15  Cc1ccc(Oc2ccc(CNCCN3CCCC3)cc2NC(=O)Nc2cccc(F)c2)cc1C [Compound 64]              ≥ 4.00
16  Cc1ccc(Oc2ccc(C(=O)NCCN3CCCC3)cc2NC(=O)Nc2c(C)cccc2C)cc1C [Compound 35]              ≥ 4.00
17  Cc1ccc(Oc2ccc(C(=O)NCCN3CCCC3)cc2NC(=O)Nc2cccc3ccccc23)cc1C [Compound 36]              ≥ 4.00
18  Cc1ccc(Oc2ccc(C(=O)NCCN3CCCC3)cc2NC(=O)Nc2ccc(-c3ccccc3)cc2)cc1C [Compound 33]              ≥ 4.00
19  Cc1ccc(Oc2ccc(C(=O)NCCN3CCCC3)cc2NC(=O)Nc2c(C(C)C)cccc2C(C)C)cc1C [Compound 37]              ≥ 4.00
20  Cc1ccc(Oc2ccc(C(=O)NCCN3CCCC3)cc2NC(=O)Nc2ccc(Br)cc2)cc1C [Compound 38]              ≥ 4.00
21  Cc1ccc(Oc2ccc(C(=O)NCCN3CCCC3)cc2NC(=O)Nc2ccccc2Cl)cc1C [Compound 41]              ≥ 4.00
22  Cc1ccc(Oc2ccc(C(=O)NCCN3CCCC3)cc2NC(=O)Nc2cc(Cl)cc(Cl)c2)cc1C [Compound 59]              ≥ 4.00
23  O=C(Nc1cccc(F)c1)Nc1cc(C(=O)NCCN2CCCC2)ccc1Oc1ccc(F)cc1 [Compound 54]              ≥ 4.00
24  O=C(CCc1ccccc1)Nc1cc(C(=O)NCCN2CCCC2)ccc1Oc1ccc2ccccc2c1 [Compound 22]              ≥ 4.00
25  COc1ccccc1NC(=O)Nc1cc(C(=O)NCCN2CCCC2)ccc1Oc1ccc(C)c(C)c1 [Compound 30]              ≥ 4.00

---

Target: rat MCH 1 receptor (rMCH1R) (Rattus norvegicus, UniProt P97639)
Construct: expressed in transfected cells; host or cells: HEK 293 (membrane preparation)
Sequence (P97639 whole entry): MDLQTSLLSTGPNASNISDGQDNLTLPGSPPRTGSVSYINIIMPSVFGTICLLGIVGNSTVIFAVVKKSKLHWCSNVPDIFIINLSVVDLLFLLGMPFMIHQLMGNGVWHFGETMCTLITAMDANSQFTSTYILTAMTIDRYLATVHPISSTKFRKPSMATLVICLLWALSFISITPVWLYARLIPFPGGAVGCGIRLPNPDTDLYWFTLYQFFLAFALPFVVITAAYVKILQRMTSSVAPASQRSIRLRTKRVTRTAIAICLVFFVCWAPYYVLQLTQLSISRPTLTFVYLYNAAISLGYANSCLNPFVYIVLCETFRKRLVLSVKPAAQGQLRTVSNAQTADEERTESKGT
Assay: Ligand binding assay (125I native-MCH), rMCH
Settings: rMCH1R expressed in HEK 293, membranes, 0.2 nM 125I native-MCH; threshold 100 nM or less
Quick reference for IC50 among some molecules
READOUT NAME: IC50

In [3]: df
Out[3]:
                             molecule_smiles  experimental_value
 0  Cc1cccc(Oc2ccc(C(=O)NCCN3CCCC3)cc2NC(=O)Nc2cccc(F)c2)c1            ≤ 100 nM
 1  O=C(Nc1cccc(F)c1)Nc1cc(C(=O)NCCN2CCCC2)ccc1Oc1ccccc1            ≤ 100 nM
 2  O=C(Nc1cccc(F)c1)Nc1cc(C(=O)NCCN2CCCC2)ccc1Oc1cccc(F)c1            ≤ 100 nM
 3  Cc1ccc(Oc2ccc(C(=O)NCCN3CCCC3)cc2NC(=O)Nc2ccccc2)cc1C            ≤ 100 nM
 4  Cc1ccc(Oc2ccc(C(=O)NCCN3CCCC3)cc2NC(=O)Nc2cccc(F)c2)cc1C            ≤ 100 nM
 5  O=C(Nc1cccc(F)c1)Nc1cc(C(=O)NCCN2CCCC2)ccc1Oc1ccc(Cl)c(Cl)c1            ≤ 100 nM
 6  O=C(Nc1cc(F)cc(F)c1)Nc1cc(C(=O)NCCN2CCCC2)ccc1Oc1ccc(Cl)c(Cl)c1            ≤ 100 nM
 7  Cc1ccc(Oc2ccc(C(=O)NCCN3CCCC3)cc2NC(=O)Nc2ccccc2Cl)cc1C            ≤ 100 nM
 8  Cc1ccc(Oc2ccc(C(=O)NCCN3CCCC3)cc2NC(=O)Nc2cc(Cl)cc(Cl)c2)cc1C            ≤ 100 nM
 9  Cc1ccc(Oc2ccc(C(=O)NCCN3CCCC3)cc2NC(=O)Nc2cc(F)cc(F)c2)cc1C            ≤ 100 nM
10  Cc1ccc(Oc2ccc(C(=O)NCCN3CCCC3)cc2NC(=O)Nc2cccc(F)c2)cc1            ≤ 100 nM
11  Cc1cc(Oc2ccc(C(=O)NCCN3CCCC3)cc2NC(=O)Nc2cccc(F)c2)ccc1F            ≤ 100 nM
12  O=C(Nc1cccc(F)c1)Nc1cc(C(=O)NCCN2CCCC2)ccc1Oc1ccc(F)c(F)c1            ≤ 100 nM
